Reference source: ChEMBL document CHEMBL1201862

Provide the reported EC50 of each item.
- tested system: Short transient receptor potential channel 4 (Mus musculus)
- Sequence (Q9QUQ5 whole entry): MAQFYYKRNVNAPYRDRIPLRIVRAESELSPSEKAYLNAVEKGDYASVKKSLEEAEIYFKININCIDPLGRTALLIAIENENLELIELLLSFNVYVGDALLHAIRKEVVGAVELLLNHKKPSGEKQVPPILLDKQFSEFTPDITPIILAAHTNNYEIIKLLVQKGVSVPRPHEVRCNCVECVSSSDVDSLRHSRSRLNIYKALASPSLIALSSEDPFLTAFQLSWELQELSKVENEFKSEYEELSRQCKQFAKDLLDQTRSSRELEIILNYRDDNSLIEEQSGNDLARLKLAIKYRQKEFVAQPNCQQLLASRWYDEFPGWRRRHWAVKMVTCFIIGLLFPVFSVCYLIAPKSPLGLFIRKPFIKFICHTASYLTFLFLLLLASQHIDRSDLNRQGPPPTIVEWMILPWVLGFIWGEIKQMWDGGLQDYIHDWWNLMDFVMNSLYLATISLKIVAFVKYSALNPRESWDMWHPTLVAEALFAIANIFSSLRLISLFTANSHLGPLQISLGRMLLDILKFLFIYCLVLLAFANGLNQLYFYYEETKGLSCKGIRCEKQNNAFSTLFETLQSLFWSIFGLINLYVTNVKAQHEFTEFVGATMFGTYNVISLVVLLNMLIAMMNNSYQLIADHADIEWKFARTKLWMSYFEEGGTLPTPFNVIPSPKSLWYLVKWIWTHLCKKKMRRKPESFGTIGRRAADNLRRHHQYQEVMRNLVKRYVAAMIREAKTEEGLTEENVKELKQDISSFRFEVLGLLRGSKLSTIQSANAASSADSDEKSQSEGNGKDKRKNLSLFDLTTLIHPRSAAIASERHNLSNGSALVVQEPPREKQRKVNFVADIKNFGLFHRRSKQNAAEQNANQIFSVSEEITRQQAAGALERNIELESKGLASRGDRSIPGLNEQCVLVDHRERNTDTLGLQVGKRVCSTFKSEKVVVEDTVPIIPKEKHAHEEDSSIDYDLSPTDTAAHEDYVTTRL
- test description: block of DAMGO-driven TRPC4 calcium entry – cell-based, HEK293 TRPC4/mu-opioid, Fluo-4 calcium, dose response (AID 434942);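 also: potency of inhibitors blocking the TRPC4 calcium response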
- Type: functional
Calls of active or inactive are those of the source. No rule for the calls is given here.

Ask: I would be grateful if you could share the reported EC50 for Cc1[nH]n(-c2ccccc2)c(=O)c1/C=C1/C(=O)NN(c2ccc(F)c(Cl)c2)C1=O .
Result: 5.31 µM (active)

Ask: CCOC(=O)C1(CCOc2ccccc2)CCN(Cc2cccs2)CC1 , same question.
Result: 4.22 µM (active)

Ask: COc1ccc(Br)cc1CN1CCN(C(=O)Cc2ccccc2)CC1 , same question.
Result: 6.68 µM (active)
